From: ChEMBL document CHEMBL1201862

Tested on: SF-539
protocol: NCI tumour cell line growth inhibition, 48 h
Calls of active or inactive are those of the source. No stated cut-off is given here; in the data, active = GI50 up to about 1.1 µM and inactive = higher.
Outcome field: choose from t for active, f for inactive

These solved cases illustrate the format of a correct answer.
CC(=O)CC(=O)Nc1ccccc1C(F)(F)F; f
O=C(C[C@@H]1NCCC[C@H]1O)Cn1cnc2cc(Br)c(Cl)cc2c1=O; t
COc1ccc(/C=C/C(=O)C(C)(C)Br)cc1; f
COc1cc2c(cc1Cc1c(F)cccc1Cl)nc(-c1c(F)cccc1Cl)n2Cc1c(F)cccc1Cl; f

Next molecule, please.
Could you please tell me the result logged for `CN(C)C(=S)Nc1nnc(NC23CC4CC(CC(C4)C2)C3)s1.[O-][Cl+3]([O-])([O-])O` in this assay? f

====

Test system: RXF 393
protocol: NCI tumour cell line growth inhibition, 48 h
Active and inactive are the calls of the source. Cut-off read from the data, not from the text of the source: active = GI50 up to about 1.1 µM and inactive = higher.
observable: GI50

Given `Brc1c(C#CCC2CCCCC2)ccc(C#CCC2CCCCC2)c1Br` , respond with its GI50. > 100 µM (inactive)

====

Test system: KM12
protocol: NCI tumour cell line growth inhibition, 48 h
The source made the active and inactive calls. No stated cut-off is given here; in the data, active = GI50 up to about 1.1 µM and inactive = higher.
Entries and their GI50 values follow.

Solved entries:
NCCNS(=O)(=O)c1ccc(N)cc1; > 100 µM (inactive)
CN(C)C(=S)Nc1nnc(NC23CC4CC(CC(C4)C2)C3)s1.[O-][Cl+3]([O-])([O-])O; 18.7 µM (inactive)
O=C(CSc1nnc(-c2ccc(/N=C\c3ccc(Cl)cc3)cc2)o1)Nc1cccc([N+](=O)[O-])c1; > 100 µM (inactive)
CC(CCC(=O)O)[C@H]1CCC2[C@H]3C(CC(=O)[C@@]21C)[C@@]1(C)CCC(O)C[C@H]1C[C@@H]3O (stereo not given in full); > 100 µM (inactive)

Please examine the following record next.
Given Cc1cc(Cl)ccc1NC(=O)C(=O)C(C(=O)c1ccc2ccccc2c1)C1OC(=O)c2ccccc21 (stereo not given) , respond with its GI50. 17 µM (inactive)

====

Tested on: SF-295
protocol: NCI tumour cell line growth inhibition, 48 h
Active and inactive are the calls of the source. Cut-off read from the data, not from the text of the source: active = GI50 up to about 1.1 µM and inactive = higher.
Outcome field: choose from T for active, F for inactive

O=C(c1ccccc1)C(c1ccccc1)C1(O)C(=O)Nc2ccc(Br)cc21 (stereo unspecified); F
CCOC(=O)CC(=O)N(c1ccc(OC)cc1)C(C(=O)OC)c1ccccc1 (stereo unspecified); F
Cc1cc2nc(N3C(=O)/C(=C/c4cccc([N+](=O)[O-])c4)N=C3c3ccccc3)sc2cc1C; F

Could you please tell me the result logged for `O=[N+]([O-])c1ccc2c(c1)c(S(=O)(=O)O)cc1nonc12` in this assay? F

Could you please tell me the result logged for `O=C(O)c1ccccc1NC(=S)c1ccccc1` in this assay? F

Could you please tell me the result logged for `CCOC(=O)CCc1c(C)c2ccc(O)cc2oc1=O` in this assay? F

Could you please tell me the result logged for `O=C1Cc2c(-c3ccccc3)cc(-c3ccccc3)nc2-c2ccccc2N1` in this assay? F

Could you please tell me the result logged for `Cc1n[nH]c(=O)n1C1CC1` in this assay? F

====

System: UO-31
protocol: NCI tumour cell line growth inhibition, 48 h
Calls of active or inactive are those of the source. Rule as the data show it: active = GI50 up to about 1.1 µM and inactive = higher.
Entries and their GI50 values follow.

Given CC12O[C@]3([C@H](C(=O)N4CCOC43C)[C@H]1Cl)[C@H]1O[C@H]12 (stereo partly specified) , respond with its GI50. > 100 µM (inactive)

Given O=NN1C(c2ccccc2)CNC(=O)CC1c1ccccc1 (stereo unspecified) , respond with its GI50. 36.3 µM (inactive)

Given CC1=NC(C)(COC(=O)C2(C)NC(C)(CO)CO2)COC1=O (stereo unspecified) , respond with its GI50. > 100 µM (inactive)

Given `O=C1C(=O)N(c2nccs2)C(=O)C(=O)C1c1nc2ccccc2s1` , respond with its GI50. > 100 µM (inactive)

Given `O=C(O)c1ccccc1NC(=S)c1ccccc1` , respond with its GI50. 51.8 µM (inactive)
